target: Btk (Homo sapiens); assay: Btk Ramos Cellular Assay (phosphorylation of the Btk substrate PLC gamma.2 after anti-IgM stimulation); details: Ramos cells, 1 hour with compound at 1, 0.1, 0.01 or 0.001 μM, goat F(ab')2 Anti-Human IgM stimulation, blot for PLC gamma.2 phosphorylation; read-out: inhibition of Btk signaling in Ramos cellular assay, IC50
Sequence (Q06187 whole entry, species assumed): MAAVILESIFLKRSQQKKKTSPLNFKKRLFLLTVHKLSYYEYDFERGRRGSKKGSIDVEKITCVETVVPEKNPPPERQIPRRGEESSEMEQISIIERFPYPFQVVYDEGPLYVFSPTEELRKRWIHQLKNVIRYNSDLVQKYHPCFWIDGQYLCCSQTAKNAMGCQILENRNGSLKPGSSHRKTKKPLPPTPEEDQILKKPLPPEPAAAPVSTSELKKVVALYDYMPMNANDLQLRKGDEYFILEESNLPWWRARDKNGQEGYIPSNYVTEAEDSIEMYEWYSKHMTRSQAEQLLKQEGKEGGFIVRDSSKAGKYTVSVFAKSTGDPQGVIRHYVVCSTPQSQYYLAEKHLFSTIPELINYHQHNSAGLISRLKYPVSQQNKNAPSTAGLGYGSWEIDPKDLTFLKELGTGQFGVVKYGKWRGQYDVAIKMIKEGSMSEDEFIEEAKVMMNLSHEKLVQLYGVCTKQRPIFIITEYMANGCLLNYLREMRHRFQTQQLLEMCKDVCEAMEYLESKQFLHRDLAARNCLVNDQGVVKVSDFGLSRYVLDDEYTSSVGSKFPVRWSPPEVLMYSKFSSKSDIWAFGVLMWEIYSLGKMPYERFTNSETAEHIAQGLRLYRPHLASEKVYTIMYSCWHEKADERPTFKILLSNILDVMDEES
pIC50: −log10 of the molar value.
Measure: pIC50

Compound | System under test | Result
COc1cc2ncnc(Nc3ccc(Oc4ccccc4)cc3)c2cc1NC(=O)/C=C/CN(C)C [Compound 27] | Btk (Homo sapiens) | > 7.00

We now examine a further compound.
Request: I am curious: what pIC50 value has been reported for CCOc1cc2ncnc(Nc3ccc(Oc4ccccc4)cc3)c2cc1NC(=O)/C=C/CN(C)C [Compound 31] ?
Response: > 7.00
